Some substances, each annotated with its measured MIC Acinetobacter baumanii ATCC 15308, in parentheses.
Tested on: Acinetobacter baumanii ATCC 15308
Format: cell-based
details: numbers in parentheses are micromolar concentrations

Examples from the recorded data:
Q: Output MIC Acinetobacter baumanii ATCC 15308, in parentheses of FLGGLIKWKWPWWPWRR-NH2 [RN7-IN10, hybrid peptide of ranalexin and indolicidin]
Ans: 31.25 (13.51) micromolar

Q: Item FLGGLIKWWPWRR-NH2 [RN7-IN6, hybrid peptide of ranalexin and indolicidin] : provide MIC Acinetobacter baumanii ATCC 15308, in parentheses
Ans: 31.25 (18.23) micromolar

Q: Quote MIC Acinetobacter baumanii ATCC 15308, in parentheses reported for LLPWKWPWWKWRR-NH2 [IN1, indolicidin analog] please.
Ans: >250 (129) micromolar

Q: Name the recorded MIC Acinetobacter baumanii ATCC 15308, in parentheses of the item FLGGLIKPWWPWRR-NH2 [RN7-IN7, hybrid peptide of ranalexin and indolicidin] in your answer.
Ans: 125 (69) micromolar

Q: Return reported MIC Acinetobacter baumanii ATCC 15308, in parentheses. Input substance: RRPWRWPWWPWRR-NH2 [IN2, indolicidin analog]
Ans: >250 (>123) micromolar

Q: Give the reported MIC Acinetobacter baumanii ATCC 15308, in parentheses for this substance. FLGGLIKPVPAMICAVRKKC-OH [RN2, ranalexin analog]
Ans: >250 (>116) micromolar

Further cases:
Q: Please look at this substance and report its MIC Acinetobacter baumanii ATCC 15308, in parentheses: FLGGLIKRPPAMICAVRKKC-OH [RN4, ranalexin analog]
Ans: >250 (>113) micromolar

Q: For FLGGLIKIVPAMICAVRKKC-OH [RN1, ranalexin analog] , write its MIC Acinetobacter baumanii ATCC 15308, in parentheses.
Ans: >250 (>115.7) micromolar

Q: Let me know recorded MIC Acinetobacter baumanii ATCC 15308, in parentheses for RLPWRWPRRPWRR-NH2 [IN4, indolicidin analog] , thanks.
Ans: >250 (>130.4) micromolar

Q: Identify measured MIC Acinetobacter baumanii ATCC 15308, in parentheses associated with RRPWRWPRWPWRR-NH2 [IN3, indolicidin analog]
Ans: >250 (>125) micromolar

Q: Specify measured MIC Acinetobacter baumanii ATCC 15308, in parentheses for FLGGLIKWPWWPWRR-NH2 [RN7-IN8, hybrid peptide of ranalexin and indolicidin] .
Ans: 62.5 (31.3) micromolar

Q: Answer with the recorded MIC Acinetobacter baumanii ATCC 15308, in parentheses of FLGGLIKRVPAMICAVRKKC-OH [RN3, ranalexin analog] only.
Ans: >250 (>113) micromolar

Q: Give reported MIC Acinetobacter baumanii ATCC 15308, in parentheses value for FLGGLIKKWPWWPWRR-NH2 [RN7-IN9, hybrid peptide of ranalexin and indolicidin]
Ans: 31.25 (14.7) micromolar

Source listed as paper PMC4457802.
